Data credit: patent US4732902A

protocol-details: Esterase cleavage of prodrug esters by incubation with rat liver homogenate
Assay type: in vitro ADME
setup-conditions: liver 9000xg supernatant, rat liver 9,000×g supernatant, pH 7.4, 37° C., 0.5 μmole substrate, read-out: Formation of IIa (piquindone) as % of incubated test compound I in 1 hr.
property-name: metabolised at 1 h (%)

{"columns": ["compound", "result"],
 "data": [
  ["CCCCCCCCCCCCCCCCCC(=O)OCCC(C)(C)C(=O)n1c(C)c(CC)c2c1C[C@H]1CCN(C)C[C@@H]1C2=O (relative stereo) [If]", 12.1]
]}

A = CCCCCCCCCCCCCCCCCCCC(=O)OCCC(C)(C)C(=O)n1c(C)c(CC)c2c1C[C@H]1CCN(C)C[C@@H]1C2=O (relative stereo) [Ig]
B = CCCCCCCC(=O)OCCC(C)(C)C(=O)n1c(C)c(CC)c2c1C[C@H]1CCN(C)C[C@@H]1C2=O (relative stereo) [Ib]
For the pair A and B , which member has the lower metabolised at 1 h number? Identify your selection by its label.
A

----------
protocol-details: Esterase cleavage of prodrug esters by incubation with rat liver homogenate
Type: in vitro ADME
setup-conditions: liver 9000xg supernatant, rat liver 9,000×g supernatant, pH 7.4, 37° C., 0.5 μmole substrate, read-out: Formation of IIa (piquindone) as % of incubated test compound I in 1 hr.
property-name: metabolised at 1 h (%)

Solved cases (2 shown):
{"columns": ["compound", "result-unit", "result"],
 "data": [
  ["CCCCCCCCCC(=O)OCCC(C)(C)C(=O)n1c(C)c(CC)c2c1C[C@H]1CCN(C)C[C@@H]1C2=O (relative stereo)", "%", 102],
  ["CCCCCCCCCCCC(=O)OCCC(C)(C)C(=O)n1c(C)c(CC)c2c1C[C@H]1CCN(C)C[C@@H]1C2=O (relative stereo)", "%", 77.2]
]}

I = CCc1c2c(n(C(=O)C(C)(C)CCOC(C)=O)c1C)C[C@H]1CCN(C)C[C@@H]1C2=O (relative stereo)
II = CCCCCCCCCCCCCCCC(=O)OCCC(C)(C)C(=O)n1c(C)c(CC)c2c1C[C@H]1CCN(C)C[C@@H]1C2=O (relative stereo)
For the pair I and II , which member has the lower metabolised at 1 h number? Identify your selection by its label.
II

----------
This listing pairs compounds with measured ED (90-100).
System: male SPF rats (conditioned avoidance response)
protocol-details: Pole climb avoidance test
Type: in vivo
setup-conditions: im; rat, intramuscular in sesame oil; dose giving 90-100% block within 24 hours; read-out: Blockade of Avoidance Response (BAR), acute 100% BAR dose
Just the number please, in mg/kg, no unit attached.

Solved cases (3 shown):
{"columns": ["compound", "ED (90-100) [mg/kg]"],
 "data": [
  ["CCCCCCCCCC(=O)OCCC(C)(C)C(=O)n1c(C)c(CC)c2c1C[C@H]1CCN(C)C[C@@H]1C2=O (relative stereo)", 10],
  ["CCc1c2c(n(C(=O)C(C)(C)CCOC(C)=O)c1C)C[C@H]1CCN(C)C[C@@H]1C2=O (relative stereo)", 3],
  ["CCCCCCCCCCCCCCCC(=O)OCCC(C)(C)C(=O)n1c(C)c(CC)c2c1C[C@H]1CCN(C)C[C@@H]1C2=O (relative stereo)", 30]
]}

Looking up CCCCCCCCCCCCCCCCCC(=O)OCCC(C)(C)C(=O)n1c(C)c(CC)c2c1C[C@H]1CCN(C)C[C@@H]1C2=O (relative stereo) , I found its ED (90-100) recorded as 30

Looking up CCCCCCCCCCCCCCCCCCCC(=O)OCCC(C)(C)C(=O)n1c(C)c(CC)c2c1C[C@H]1CCN(C)C[C@@H]1C2=O (relative stereo) , I found its ED (90-100) recorded as 30

----------
This listing pairs compounds with measured Duration: % BAR, Day 2.
Tested on: male SPF rats (conditioned avoidance response)
protocol-details: Pole climb avoidance test
Assay type: in vivo
setup-conditions: rat, single i.m. 100% BAR dose in sesame oil, Day 2
From the text: In vivo activity. Pole Climb Avoidance Test. In the pole climb test, antipsychotics characteristically disrupt an acquired discrete conditioned avoidance behavior in doses well below those which suppress the response to unconditioned stimuli (escape). […] Dose-effect curves of block of conditioned response (BCR) were constructed by plotting the log dose against the effect (in percent BCR) at the peak of action. From these curves the ED50 for BCR were graphically determined. […]
Just the number please, in %, no unit attached.

{"columns": ["compound", "tested-target", "result"],
 "data": [
  ["CCCCCCCCCCCCCCCCCCCC(=O)OCCC(C)(C)C(=O)n1c(C)c(CC)c2c1C[C@H]1CCN(C)C[C@@H]1C2=O (relative stereo) [Ig]", "male SPF rats (conditioned avoidance response)", 10],
  ["CCCCCCCCCCCCCCCCCC(=O)OCCC(C)(C)C(=O)n1c(C)c(CC)c2c1C[C@H]1CCN(C)C[C@@H]1C2=O (relative stereo) [If]", "male SPF rats (conditioned avoidance response)", 10],
  ["CCc1c2c(n(C(=O)C(C)(C)CCOC(C)=O)c1C)C[C@H]1CCN(C)C[C@@H]1C2=O (relative stereo) [Ia]", "male SPF rats (conditioned avoidance response)", 50],
  ["CCCCCCCCCC(=O)OCCC(C)(C)C(=O)n1c(C)c(CC)c2c1C[C@H]1CCN(C)C[C@@H]1C2=O (relative stereo) [Ic]", "male SPF rats (conditioned avoidance response)", 100]
]}

Moving on to another compound below.
Looking up CCCCCCCCCCCCCCCC(=O)OCCC(C)(C)C(=O)n1c(C)c(CC)c2c1C[C@H]1CCN(C)C[C@@H]1C2=O (relative stereo) [Ie] , I found its Duration: % BAR, Day 2 recorded as 10

----------
tested-target: dopamine receptors (Rattus norvegicus, UniProt P61169)
Sequence (P61169 whole entry): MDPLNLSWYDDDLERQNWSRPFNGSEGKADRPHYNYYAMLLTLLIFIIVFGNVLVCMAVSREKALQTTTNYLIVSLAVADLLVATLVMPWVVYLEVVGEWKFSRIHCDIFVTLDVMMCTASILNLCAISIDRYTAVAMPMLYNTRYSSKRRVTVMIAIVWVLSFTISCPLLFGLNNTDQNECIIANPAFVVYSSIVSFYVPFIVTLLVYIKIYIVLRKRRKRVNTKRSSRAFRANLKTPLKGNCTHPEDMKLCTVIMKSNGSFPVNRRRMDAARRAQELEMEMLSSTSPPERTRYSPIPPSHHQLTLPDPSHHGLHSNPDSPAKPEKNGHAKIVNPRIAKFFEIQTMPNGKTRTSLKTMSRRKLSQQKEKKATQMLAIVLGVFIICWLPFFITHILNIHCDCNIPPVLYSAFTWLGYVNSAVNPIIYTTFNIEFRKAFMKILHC
pIC50: −log10 of the molar value.
property-name: pIC50

{"columns": ["compound", "pIC50"],
 "data": [
  ["CCc1c2c(n(C(=O)C(C)(C)CCOC(C)=O)c1C)C[C@H]1CCN(C)C[C@@H]1C2=O (relative stereo) [Ia]", 6.60]
]}

a = CCCCCCCC(=O)OCCC(C)(C)C(=O)n1c(C)c(CC)c2c1C[C@H]1CCN(C)C[C@@H]1C2=O (relative stereo) [Ib]
b = CCCCCCCCCCCCCCCCCC(=O)OCCC(C)(C)C(=O)n1c(C)c(CC)c2c1C[C@H]1CCN(C)C[C@@H]1C2=O (relative stereo) [If]
For the pair a and b , which member has the lower pIC50 number? Identify your selection by its label.
b
